Would you kindly list log10 IC50 for each of these compounds?
# measured.on: AChE (Homo sapiens)
# Construct: from tissue; host or cells: brain homogenate supernatant
# Sequence (P22303 32-614): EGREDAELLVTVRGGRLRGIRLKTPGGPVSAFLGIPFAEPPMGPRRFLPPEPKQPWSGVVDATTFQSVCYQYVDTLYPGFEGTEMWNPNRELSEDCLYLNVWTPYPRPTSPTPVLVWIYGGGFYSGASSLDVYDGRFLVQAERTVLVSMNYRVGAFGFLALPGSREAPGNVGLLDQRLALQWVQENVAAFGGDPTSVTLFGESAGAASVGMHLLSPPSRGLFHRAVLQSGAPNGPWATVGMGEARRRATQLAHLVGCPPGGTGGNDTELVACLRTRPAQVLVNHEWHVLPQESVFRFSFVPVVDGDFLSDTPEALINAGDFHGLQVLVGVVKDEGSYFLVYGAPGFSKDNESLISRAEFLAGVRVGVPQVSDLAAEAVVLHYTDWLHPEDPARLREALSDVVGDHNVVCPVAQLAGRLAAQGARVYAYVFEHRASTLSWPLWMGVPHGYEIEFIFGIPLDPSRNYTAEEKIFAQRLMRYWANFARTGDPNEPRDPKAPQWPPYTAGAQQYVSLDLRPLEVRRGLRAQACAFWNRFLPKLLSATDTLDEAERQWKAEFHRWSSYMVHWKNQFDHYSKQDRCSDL
# assay.method.text: AChE inhibitory assay (Ellman-type, brain homogenate supernatant)
# Type: biochemical
# experimental.setup: means of three replicates; N.A. means no activity; read-out: AChE-IC50 (µM ± SD)
log10 IC50, µM

State measured log10 IC50 of the compound O=C(COc1ccccc1-c1nc(Cc2ccccc2)no1)N/N=C\c1ccccc1[N+](=O)[O-] [Compound 2b] with AChE (Homo sapiens).
-3.01

State measured log10 IC50 of the compound O=C(COc1ccccc1-c1nc(-c2ccccc2)no1)NNC(=O)c1ccc2ccccc2n1 [Compound 5a] with AChE (Homo sapiens).
-1.32

State measured log10 IC50 of the compound O=C(COc1ccccc1-c1nc(-c2ccc(C(F)(F)F)cc2)no1)NN1C(=O)c2ccccc2C1=O [Compound 4c] with AChE (Homo sapiens).
-1.42

State measured log10 IC50 of the compound O=C(COc1ccccc1-c1nc(-c2ccccc2)no1)N/N=C\c1ccccc1[N+](=O)[O-] [Compound 2a] with AChE (Homo sapiens).
-1.47

State measured log10 IC50 of the compound O=C(COc1ccccc1-c1nc(Cc2ccccc2)no1)NNC(=O)c1ccc2ccccc2n1 [Compound 5b] with AChE (Homo sapiens).
-1.47

State measured log10 IC50 of the compound NNC(=O)COc1ccccc1-c1nc(Cc2ccccc2)no1 [Compound 1b] with AChE (Homo sapiens).
-1.51

State measured log10 IC50 of the compound O=C(COc1ccccc1-c1nc(-c2ccccc2)no1)NN1C(=O)c2ccccc2C1=O [Compound 4a] with AChE (Homo sapiens).
-1.48

State measured log10 IC50 of the compound O=C(COc1ccccc1-c1nc(Cc2ccccc2)no1)NN1C(=O)c2ccccc2C1=O [Compound 4b] with AChE (Homo sapiens).
-1.53

State measured log10 IC50 of the compound O=C(COc1ccccc1-c1nc(Cc2ccccc2)no1)N/N=C\c1cnn(-c2ccccc2)n1 [Compound 3b] with AChE (Homo sapiens).
-1.63

State measured log10 IC50 of the compound O=C(COc1ccccc1-c1nc(-c2ccc(C(F)(F)F)cc2)no1)NNC(=O)c1ccc2ccccc2n1 [Compound 5c] with AChE (Homo sapiens).
-1.10

State measured log10 IC50 of the compound O=C(COc1ccccc1-c1nc(-c2ccc(C(F)(F)F)cc2)no1)N/N=C\c1ccccc1[N+](=O)[O-] [Compound 2c] with AChE (Homo sapiens).
-1.90
